- Target Desc: T1, wildtype feline IL-31 protein (Feline_IL31_wildtype) (feline)
- T1 construct: Full length feline IL-31 with C-terminal His tag, secreted from ExpiCHO cells; also called fIL-31
- T1 chain: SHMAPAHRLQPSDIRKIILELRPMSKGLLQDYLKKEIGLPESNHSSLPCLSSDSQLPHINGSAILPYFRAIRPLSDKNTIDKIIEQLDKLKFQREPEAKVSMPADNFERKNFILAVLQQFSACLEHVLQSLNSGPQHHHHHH
- Method Description: Biacore, feline IL-31 chip, mAb 100 nM, share of points within parent mean +/-3 SD
- Parameters: key: % of mutant data points within parent mAb mean ±3 SD
- Source text: The mean response unit of four replicates of the parent mAb+/−3 standard deviations was used to generate parameters to define a threshold of response units comprising both the on- and off-rates antibody binding (FIG. 22). The percentage of data points for each mutant fell within this threshold was then used to define a “% similarity score” (FIG. 23).
Recorded Binding Similarity score, one value per entry.
Give your answer as a number; write no unit.

Exercise: Name the recorded Binding Similarity score of the binder listed here: A60 (antibody, V domains shown) VH: QVLLVQSGAEVRTPGASVKIFCKASGYSFTSYTIHWLRQAPAQGLEWMGNINPTSGYTENNQRFKDRLTLTADTSTNTAYMELSSLRSADTAMYYCARWGFKYDGEASFDVWGAGTTVTVSS VL: EIQMTQSPSSLSASPGDRVTITCRASQGISIWLSWYQQKPGNIPKVLINKASNLHIGVPSRFSGSGSGTDFTLTISSLEPEDAATYYCLQSQTYPLTFGGGTKLEIK
Solution: 2.4

Exercise: Consider the binder A47 (antibody, V domains shown) VH: QVLLVQSGAEVRTPGASVKIFCKASGYSFTSYTIHWLRQAPAQGLEWMGNINPTSGYTANNQRFKDRLTLTADTSTNTAYMELSSLRSADTAMYYCARWGFKYDGEWSFDVWGAGTTVTVSS VL: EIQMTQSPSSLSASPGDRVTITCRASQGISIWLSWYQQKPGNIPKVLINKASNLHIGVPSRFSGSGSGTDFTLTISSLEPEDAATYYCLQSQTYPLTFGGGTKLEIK . State its measured Binding Similarity score.
Solution: 100

Exercise: Fill in reported Binding Similarity score for this entry: A30 (antibody, V domains shown) VH: QVLLVQSGAEVRTPGASVKIFCKASGYSFASYTIHWLRQAPAQGLEWMGNINPTSGYTENNQRFKDRLTLTADTSTNTAYMELSSLRSADTAMYYCARWGFKYDGEWSFDVWGAGTTVTVSS VL: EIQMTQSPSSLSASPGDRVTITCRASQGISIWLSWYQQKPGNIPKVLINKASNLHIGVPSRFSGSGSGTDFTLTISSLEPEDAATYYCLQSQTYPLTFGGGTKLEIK
Solution: 79

Exercise: Please supply the value of reported Binding Similarity score for the item A63 (antibody, V domains shown) VH: QVLLVQSGAEVRTPGASVKIFCKASGYSFTSYTIHWLRQAPAQGLEWMGNINPTSGYTENNQRFKDRLTLTADTSTNTAYMELSSLRSADTAMYYCARWGFKYDGEWSADVWGAGTTVTVSS VL: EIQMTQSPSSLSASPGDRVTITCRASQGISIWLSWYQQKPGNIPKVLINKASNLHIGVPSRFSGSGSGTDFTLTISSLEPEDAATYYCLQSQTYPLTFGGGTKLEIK
Solution: 2.9

Exercise: Specify reported Binding Similarity score for the binder shown: A38 (antibody, V domains shown) VH: QVLLVQSGAEVRTPGASVKIFCKASGYSFTSYTIHWLRQAPAQGLEWMGNANPTSGYTENNQRFKDRLTLTADTSTNTAYMELSSLRSADTAMYYCARWGFKYDGEWSFDVWGAGTTVTVSS VL: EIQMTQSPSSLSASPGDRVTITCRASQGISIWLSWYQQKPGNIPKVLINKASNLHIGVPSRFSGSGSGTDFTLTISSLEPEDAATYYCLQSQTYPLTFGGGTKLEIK
Solution: 55.1
